- assay system: PepT1 (Mus musculus, UniProt Q9JIP7)
- Sequence (Q9JIP7 whole entry, the tested form may be a part): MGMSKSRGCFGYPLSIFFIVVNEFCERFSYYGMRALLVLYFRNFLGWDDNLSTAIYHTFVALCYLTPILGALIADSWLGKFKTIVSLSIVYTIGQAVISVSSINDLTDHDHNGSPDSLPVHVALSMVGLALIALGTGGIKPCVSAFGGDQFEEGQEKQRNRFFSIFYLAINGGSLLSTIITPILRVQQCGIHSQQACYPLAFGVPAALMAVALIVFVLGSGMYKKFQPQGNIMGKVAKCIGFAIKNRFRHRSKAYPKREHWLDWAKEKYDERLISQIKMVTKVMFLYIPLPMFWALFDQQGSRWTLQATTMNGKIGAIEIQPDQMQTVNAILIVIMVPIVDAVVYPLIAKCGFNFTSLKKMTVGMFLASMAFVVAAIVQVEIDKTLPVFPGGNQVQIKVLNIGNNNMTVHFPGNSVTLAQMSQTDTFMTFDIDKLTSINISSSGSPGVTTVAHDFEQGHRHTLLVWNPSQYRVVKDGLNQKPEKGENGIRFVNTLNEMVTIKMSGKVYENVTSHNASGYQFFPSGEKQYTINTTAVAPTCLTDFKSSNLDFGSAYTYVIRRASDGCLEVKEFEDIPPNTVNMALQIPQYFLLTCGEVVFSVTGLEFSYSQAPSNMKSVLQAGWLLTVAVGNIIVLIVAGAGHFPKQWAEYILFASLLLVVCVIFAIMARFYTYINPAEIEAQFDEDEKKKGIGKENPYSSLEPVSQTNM
- experimental conditions: 25 mM inhibitor co-perfused with 10 μM cefadroxil, pH 6.5, wild-type mice
Square brackets hold non-standard residues; d marks the D form. Peptide text beside a SMILES is read from it. Sar = CNCC(=O)O
observation type: effect on jejunal effective permeability of cefadroxil

CNC(=O)c1cccnc1 [NMN, N-methylnicotinamide] = no significant effect
NCC(=O)N1CCC[C@H]1C(=O)O [GlyPro, glycylproline] (H-Gly-Pro-OH) = significantly decreased
CN(CC(=O)O)C(=O)CN [GlySar, glycylsarcosine] (H-Gly-[Sar]-OH) = significantly decreased
N[C@@H](Cc1c[nH]cn1)C(=O)O = no significant effect

Exercise: Form field - read-out: effect on jejunal effective permeability of cefadroxil; system: PepT1 (Mus musculus, UniProt Q9JIP7); submitted item: "NCC(=O)O"
Solution: no significant effect
